B1: Azoarcus group I ribozyme (parent)
chain: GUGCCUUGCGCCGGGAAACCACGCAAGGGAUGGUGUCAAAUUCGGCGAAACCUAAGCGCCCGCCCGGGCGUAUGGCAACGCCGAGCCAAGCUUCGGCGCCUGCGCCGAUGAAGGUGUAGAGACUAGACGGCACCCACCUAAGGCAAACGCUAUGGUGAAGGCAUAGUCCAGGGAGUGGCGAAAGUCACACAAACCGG

Variants of: B1
Experiment: reverse-splicing fitness (ratio to wild type); higher = more active; in vitro selection; Mg2+ level not given
Quick rule: reverse-splicing fitness of at least 0.009 means met, below that means not met.

**Query** Has C82U A111U A120C C150G C169A U176A a recorded reverse-splicing fitness greater than or equal to 0.009?
**Result** met

**Query** Has C82G A120G C150U C169U U176C a recorded reverse-splicing fitness greater than or equal to 0.009?
**Result** met

**Query** Decide: is the reported value of reverse-splicing fitness for C82U A111U A120G A145C C150G C169G U176A equal to or greater than 0.009?
**Result** not met

New cases:
**Query** Entry C82G A120C C150G U176A : is its reverse-splicing fitness no less than 0.009?
**Result** not met

**Query** API: above_or_equal(metric=reverse-splicing fitness, cutoff=0.009) for item C82U A111C C150A U176G
**Result** not met

**Query** Is it the case that C82U A111C A120G C150U C169A U176G has reverse-splicing fitness reaching or exceeding 0.009?
**Result** not met

**Query** Quick check: does C82A A111G A120C A145U U176A have reverse-splicing fitness greater than or equal to 0.009?
**Result** met

**Query** Identify whether the reported reverse-splicing fitness of the following variant is 0.009 or greater: C82A A120U A145U C150U C169U U176A
**Result** not met

**Query** Could you tell me if the measured reverse-splicing fitness of C82A A111U A145U C169G U176C reaches 0.009 or more?
**Result** met

**Query** Reported reverse-splicing fitness reaches at least 0.009 for C82G A145G C150U C169A U176G ?
**Result** not met

**Query** Answer whether reverse-splicing fitness of C82U A111G A120G A145G C150U C169G U176G is greater than or equal to 0.009.
**Result** not met

**Query** Item A111G A120U C150G U176G with reverse-splicing fitness of 0.009 or above?
**Result** not met

**Query** Test whether the variant A111C A120U C150U C169G U176C records reverse-splicing fitness of 0.009 or higher.
**Result** not met

**Query** Check this variant for reverse-splicing fitness at or above 0.009: A120C A145U C150U C169A U176C
**Result** met

**Query** Is the recorded value of reverse-splicing fitness equal to or greater than 0.009 for this variant? C82G A111G A120G A145C C169U
**Result** met

**Query** # check: reverse-splicing fitness of A111U C169G is greater than or equal to 0.009
**Result** met

**Query** Could you tell me if the measured reverse-splicing fitness of A145C U176A reaches 0.009 or more?
**Result** met

**Query** API: above_or_equal(metric=reverse-splicing fitness, cutoff=0.009) for item C82U A111G A120C U176A
**Result** met

**Query** Hi, just wondering whether A120G C150U C169U U176G shows reverse-splicing fitness of 0.009 or higher.
**Result** met

**Query** Does the variant A111G A120C C150U C169U U176C have recorded reverse-splicing fitness that is 0.009 or more?
**Result** met

**Query** Is the recorded value of reverse-splicing fitness equal to or greater than 0.009 for this variant? C82A A145U C150G C169U U176C
**Result** met

**Query** Confirm if reverse-splicing fitness reported for the variant C82A A145G C150G C169G is 0.009 or above.
**Result** not met

**Query** # bool: reverse-splicing fitness of C82U A111C A120G C150U C169U >= 0.009
**Result** not met

**Query** Could you please find out whether C82G A111U A120G A145U C150A C169G U176A has reverse-splicing fitness that meets 0.009 or exceeds it?
**Result** met

**Query** Test whether the variant A111G A145U C150G C169U U176A records reverse-splicing fitness of 0.009 or higher.
**Result** not met

**Query** Reported reverse-splicing fitness at or above 0.009? C82G A111G A120C C150G C169G U176A
**Result** met

**Query** reverse-splicing fitness >= 0.009 for C82G A111C A120U A145C C169G U176G ?
**Result** not met
